Origin of measurements: patent US12018029B2

- experimentalTarget: LOX (Mus musculus)
- Construct: Full length LOX cDNA was then PCR cloned into pEGFP-N1 (Clonetech), or biosensor vector proGFP2-N1
- Sequence (P28301 163-411): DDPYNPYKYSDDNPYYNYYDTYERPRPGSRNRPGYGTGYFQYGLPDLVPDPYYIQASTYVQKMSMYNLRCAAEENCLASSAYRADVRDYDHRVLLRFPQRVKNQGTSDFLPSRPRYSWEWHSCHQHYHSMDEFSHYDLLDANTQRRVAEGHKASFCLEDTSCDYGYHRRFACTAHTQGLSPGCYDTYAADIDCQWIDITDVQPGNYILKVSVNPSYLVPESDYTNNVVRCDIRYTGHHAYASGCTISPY
- testMethodNotes: LOX activity in cysts assay (roGFP2 LOX biosensor in MDCK cysts)
- runConditions: MDCK cysts; read-out: LOX biosensor IC50 (cyst)
recordedEndpoint: IC50 (µM)
Give the value, in units of µM, as a plain number.

What IC50 value was documented for this compound, `CCOc1ccc(N2C[C@]3(C)CN(C(=O)NCCO)C[C@]3(C)C2)cc1` ?
1.62
